# credit: PubChem BioAssay AID652125

Biological target: Perilipin-1 (Homo sapiens) + 1-acylglycerol-3-phosphate O-acyltransferase ABHD5 (Homo sapiens) (UniProt O60240+Q8WTS1)
Assay: PubChem AID 652125
Conditions: biochemical ABHD5-PLIN1 interaction, luminescence
Calls of active or inactive are those of the source. The rule behind the calls is not given here.
Would you mind answering with one of these outcomes? active, inactive

1) O=C(Cc1cccc(F)c1)N1CCN(S(=O)(=O)c2ccc3c(c2)OCCO3)CC1 : inactive
2) CN1C(=O)c2ccccc2Sc2ccc(NC(=O)NCCCc3ccccc3)cc21 : active
3) Cc1ccc(NC(=O)c2nc(S(C)(=O)=O)ncc2Cl)cc1 : active
4) Cc1ccc(CS(=O)(=O)c2ncc(Cl)c(C(=O)NCc3ccc4c(c3)OCO4)n2)cc1 : active
5) CCCNC(=O)Nc1ccc2c(c1)N(CC)C(=O)c1ccccc1S2 : inactive
6) COc1ccc(OCC(=O)Nc2ccc3c(c2)N(C(C)C)C(=O)c2ccccc2O3)cc1 : inactive
7) CCCCCCCNC(=O)Nc1ccc2c(c1)Sc1ccccc1C(=O)N2C : inactive
8) CCc1ccc2c(CC(=O)N3CCN(S(=O)(=O)c4ccc5c(c4)OCCO5)CC3)coc2c1 : active
9) CN(C)CCCN(C(=O)Cc1ccc(F)cc1)c1nc2ccc(Cl)cc2s1 : inactive

Now take the following compound into account.
Prompt: Returns: the outcome recorded for CN(C)CCCN(C(=O)CCc1ccccc1)c1nc2ccc(Cl)cc2s1 in this assay.
Response: inactive
